B1: KCTD10 (parent)
chain: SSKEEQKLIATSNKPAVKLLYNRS

variants of: B1; experiment: protein stability index of a GFP-peptide fusion (GPS, HEK-293T) (PSI 1-6); higher = more stable; details: c terminus: a fixed tail appended;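 note: lentivirally expressed fusions sorted by FACS into six bins by GFP to DsRed ratio, PSI derived from sequencing read proportions per bin multiplied by bin number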
Listing of recorded protein stability index by entry.
PROPERTY LABEL: protein stability index

| SEQUENCE CONTENT | READING |
| --- | --- |
| SSKEEQKLIATSNKPAVTLLYNRS [K18T] | 3.74 |
| SSKEEQKLIATSNKPAVKLLYWRS [N22W] | 2.73 |
| SSKWEQKLIATSNKPAVKLLYNRS [E4W] | 3.24 |
| SSKEEQKLFATSNKPAVKLLYNRS [I9F] | 4.08 |
| SSKEEQKVIATSNKPAVKLLYNRS [L8V] | 4.66 |
| SSKEEQKLIATSNKPAVWLLYNRS [K18W] | 2.4 |
| SSKEEQKLIATSNRPAVKLLYNRS [K14R] | 4.2 |
| SSKEEQKLIATSNKPDVKLLYNRS [A16D] | 4.18 |
| SSKEEQKLIATSNKPHVKLLYNRS [A16H] | 4.16 |
| SSKEEQKLIATSHKPAVKLLYNRS [N13H] | 3.9 |
| SSKEEQKLAATSNKPAVKLLYNRS [I9A] | 3.97 |
| SSKEEVKLIATSNKPAVKLLYNRS [Q6V] | 3.6 |
| SSKEEQKLIATTNKPAVKLLYNRS [S12T] | 4.34 |
| SSKEEQKLIATSNKPWVKLLYNRS [A16W] | 2.94 |
| SSKEEQKLIATSGKPAVKLLYNRS [N13G] | 4.28 |
| SSKEEQKLIARSNKPAVKLLYNRS [T11R] | 3.37 |
| ESKEEQKLIATSNKPAVKLLYNRS [S1E] | 4.49 |
| SSKEEQKLIATSNKPAVKLLSNRS [Y21S] | 4.33 |
| SSKEEQKLIAASNKPAVKLLYNRS [T11A] | 4.42 |
| SSKEEQKLIATSNKPAVKLLYNQS [R23Q] | 4.01 |
| SSKEEQKLIATSNKPAVKLLYNRH [S24H] | 3.56 |
| SCKEEQKLIATSNKPAVKLLYNRS [S2C] | 2.83 |
| SSKEEQKLIATSNKPAVKLLYNDS [R23D] | 4.71 |
| VSKEEQKLIATSNKPAVKLLYNRS [S1V] | 3.84 |
| SSKREQKLIATSNKPAVKLLYNRS [E4R] | 3.66 |
| SSKEEQALIATSNKPAVKLLYNRS [K7A] | 4.1 |
| SSKEEQKLIATSNKPAVKLLYNGS [R23G] | 3.75 |
| SSKEEQKLIATSNKPAVKLKYNRS [L20K] | 4.53 |
| SSKEEQKLILTSNKPAVKLLYNRS [A10L] | 3.73 |
| SSKEEQKLIATSNGPAVKLLYNRS [K14G] | 4.03 |
| SSKEEQKYIATSNKPAVKLLYNRS [L8Y] | 4.02 |
| SSKEEQKLIATSNKKAVKLLYNRS [P15K] | 3.39 |
| SSKEEQKLIATSNPPAVKLLYNRS [K14P] | 4.32 |
| SSKEEQKLIATSNKPKVKLLYNRS [A16K] | 4.33 |
| SSKEEQKLIATSNKPAVKLLMNRS [Y21M] | 4.18 |
| SSKEEQSLIATSNKPAVKLLYNRS [K7S] | 3.55 |
| SSKEEPKLIATSNKPAVKLLYNRS [Q6P] | 4 |
| SSKEEQKLIATSNKMAVKLLYNRS [P15M] | 3.47 |
| SSKEEQKLIATSNKGAVKLLYNRS [P15G] | 4.24 |
| SSKEEQKLIATSNKPAHKLLYNRS [V17H] | 4.35 |
| SSKAEQKLIATSNKPAVKLLYNRS [E4A] | 3.3 |
| SSKEEQLLIATSNKPAVKLLYNRS [K7L] | 3.21 |
| SSYEEQKLIATSNKPAVKLLYNRS [K3Y] | 3.26 |
| SSTEEQKLIATSNKPAVKLLYNRS [K3T] | 4.18 |
| SSKEEQKLIATSNKPAVKCLYNRS [L19C] | 4.39 |
| SSWEEQKLIATSNKPAVKLLYNRS [K3W] | 3.93 |
| SSKEEQKLIATSNKPAVKTLYNRS [L19T] | 4.95 |
| SSKEEQKLIATSNKPALKLLYNRS [V17L] | 4.02 |
| SSKEEQKLIATSNKPAIKLLYNRS [V17I] | 4.02 |
| SSKEEQKLIATSNKPPVKLLYNRS [A16P] | 3.95 |
| SSKEEQKLIAWSNKPAVKLLYNRS [T11W] | 3.35 |
| SSKEESKLIATSNKPAVKLLYNRS [Q6S] | 3.86 |
| SSKEEQKLTATSNKPAVKLLYNRS [I9T] | 4.18 |
| SSKEEQKLIATSNKPAVKLNYNRS [L20N] | 4.37 |
| SSKESQKLIATSNKPAVKLLYNRS [E5S] | 3.87 |
| SSKETQKLIATSNKPAVKLLYNRS [E5T] | 3.82 |
| SSKEEQKLIAPSNKPAVKLLYNRS [T11P] | 3.97 |
| SSPEEQKLIATSNKPAVKLLYNRS [K3P] | 4.06 |
| SSEEEQKLIATSNKPAVKLLYNRS [K3E] | 4.16 |
| SSKEEQKHIATSNKPAVKLLYNRS [L8H] | 4.46 |
| SSKEEQKLIATSNWPAVKLLYNRS [K14W] | 2.63 |
| SSKEEQKLIATSNKPAVILLYNRS [K18I] | 2.34 |
| SSKEEQKLIATSNKPEVKLLYNRS [A16E] | 4.26 |
| SYKEEQKLIATSNKPAVKLLYNRS [S2Y] | 3.56 |
| SSKEEQKLIATSNKPAVKLCYNRS [L20C] | 3.79 |
| SSKEEQKLIATSNKPAVKLLYNRY [S24Y] | 3.48 |
| SSKEEQKLIATSNKPAVKLLNNRS [Y21N] | 4.58 |
| SSKEEQKLIATINKPAVKLLYNRS [S12I] | 3.92 |
| SSKEEQKLIATSNKPAVKLIYNRS [L20I] | 4.6 |
| SSKEEQKDIATSNKPAVKLLYNRS [L8D] | 4.88 |
| SSKEEQKLIATSNKPAVKGLYNRS [L19G] | 4.13 |
| SSKEEQKLIATSNKTAVKLLYNRS [P15T] | 3.73 |
| SSNEEQKLIATSNKPAVKLLYNRS [K3N] | 4.04 |
| SSKEEQKLIATSNKPAVKLDYNRS [L20D] | 4.53 |
| SSKEEQKLIATSNKPAVKLLYCRS [N22C] | 3.7 |
| SSAEEQKLIATSNKPAVKLLYNRS [K3A] | 4.67 |
| SSKEMQKLIATSNKPAVKLLYNRS [E5M] | 2.97 |
| SSKEEQKCIATSNKPAVKLLYNRS [L8C] | 4.42 |
| SSKEEQKLIATSLKPAVKLLYNRS [N13L] | 3.3 |
| TSKEEQKLIATSNKPAVKLLYNRS [S1T] | 4.1 |
| SSKEEQKFIATSNKPAVKLLYNRS [L8F] | 3.51 |
| SSMEEQKLIATSNKPAVKLLYNRS [K3M] | 4.08 |
| SNKEEQKLIATSNKPAVKLLYNRS [S2N] | 4.16 |
| SSKEEQKLIATMNKPAVKLLYNRS [S12M] | 3.42 |
| SSKEEQKLIATSNKPAVDLLYNRS [K18D] | 4.25 |
| SSKEEQKLIATSNKPAVKLLGNRS [Y21G] | 4.97 |
| SSIEEQKLIATSNKPAVKLLYNRS [K3I] | 3.91 |
| DSKEEQKLIATSNKPAVKLLYNRS [S1D] | 3.9 |

Just for reference, the supplement of paper PMC10567573 is where these values come from.
